Target: NDM-1 (Klebsiella pneumoniae, UniProt C7C422)
Sequence (C7C422 whole entry, looked up, species assumed): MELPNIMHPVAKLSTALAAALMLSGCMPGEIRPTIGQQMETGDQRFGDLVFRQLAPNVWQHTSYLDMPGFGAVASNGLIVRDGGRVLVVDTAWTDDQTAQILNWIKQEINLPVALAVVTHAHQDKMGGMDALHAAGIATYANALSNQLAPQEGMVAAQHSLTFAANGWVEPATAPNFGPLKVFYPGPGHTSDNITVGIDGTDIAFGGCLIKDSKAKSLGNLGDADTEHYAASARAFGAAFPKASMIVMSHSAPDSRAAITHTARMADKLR
Assay: biochemical
Assay type: biochemical
Conditions: fluorescence assay with CCF2-FA substrate; read-out: NDM-1 IC50
Simple rule here: IC50 less than 10 nM is 1 (yes), otherwise 0 (no).

Reference set, count: 3
# Compound, Tested System, Group
data = [
    ("NS(=O)(=O)c1nccc(N2CCC(Oc3ncccn3)CC2)c1-c1nnn[nH]1 [Example 231]", "NDM-1 (Klebsiella pneumoniae, UniProt C7C422)", "0 (no)"),
    ("NS(=O)(=O)c1c(C(F)(F)F)ccc(NC2(C3CCNC3)CC2)c1-c1nnn[nH]1 (stereo not shown) [Example 777]", "NDM-1 (Klebsiella pneumoniae, UniProt C7C422)", "0 (no)"),
    ("Nc1ncnc2cc(-c3ccc(C(F)(F)F)c(S(N)(=O)=O)c3-c3nnn[nH]3)ccc12 [Example 749]", "NDM-1 (Klebsiella pneumoniae, UniProt C7C422)", "1 (yes)"),
]

Determine if NS(=O)(=O)c1nccc(N2CCC3(CC2)NCNC3=O)c1-c1nnn[nH]1 [Example 221] shows IC50 strictly lower than 10 nM.
0 (no)

What do we get for NS(=O)(=O)c1cccc(-c2cnc(C3(O)CCC3)s2)c1-c1nn[nH]n1 [Example 21] ?
0 (no)

What do we get for NS(=O)(=O)c1cccc(-c2cnn3ncccc23)c1-c1nn[nH]n1 [Example 105] ?
0 (no)

What do we get for NS(=O)(=O)c1cccc(-c2cnn3ccccc23)c1-c1nn[nH]n1 [Example 98] ?
1 (yes)

What do we get for NS(=O)(=O)c1cccc(-c2ccc3c(c2)CCCO3)c1-c1nn[nH]n1 [Example 85] ?
1 (yes)

What do we get for Nc1nnc(C2CCN(c3ccc(C(F)(F)F)c(S(N)(=O)=O)c3-c3nnn[nH]3)CC2)s1 [Example 764] ?
0 (no)

What do we get for NS(=O)(=O)c1c(C(F)(F)F)ccc(-c2ccc(C3CN(C4CCNC4)C3)cc2)c1-c1nnn[nH]1 (stereo not shown) [Example 801] ?
1 (yes)
